Counter-ions that a name gives are not always drawn.
Readout: melting point

Compound	Reported
Clc1c2n(c3ccccc13)CCNCC2 (as salt: hydrochloride)	> 250 °C
CC(C)(C)OC(=O)N1CCc2cc3ccccc3n2CC1	129 to 132 °C
COc1ccc(NC(=O)C(=O)c2c3n(c4ccccc24)CCNCC3)cc1	177 to 180 °C
O=[N+]([O-])/C=C/c1c2n(c3ccccc13)CCNCC2	225 to 226 °C
CN1CCc2cc3ccccc3n2CC1	59 to 60 °C
COc1ccc(NC(=O)C(=O)c2c3n(c4ccccc24)CCNCC3)cc1Cl	221 to 223 °C
CCN1CCc2cc3ccccc3n2CC1	44 to 46 °C
CCCN1CCc2cc3ccccc3n2CC1 (as salt: hydrochloride)	257 to 259 °C
O=C(Nc1ccccc1)C(=O)c1c2n(c3ccccc13)CCNCC2	157 to 160 °C
O=C(c1c2n(c3ccccc13)CCNCC2)C(F)(F)F	131 to 133 °C

Data origin: patent US6734301B2
